ASSAY TEXT: Non-enzymatic stability under cellular assay conditions (HPLC)
Assay type: physicochemical
PROTOCOL CONDITIONS: compound remaining, assay medium DMEM, 37 °C, 6 h
READOUT KIND: 6 h- % (%)

Cc1ncsc1-c1ccc([C@H](C)NC(=O)[C@@H]2C[C@@H](O)CN2C(=O)[C@@H](NC(=O)CCCCCCCNC(=O)c2cc(Oc3ccc(NC(=O)Nc4cccc(C(F)(F)F)c4)cc3)ccn2)C(C)(C)C)cc1 ... 99.7
Cc1ncsc1-c1ccc([C@H](C)NC(=O)[C@@H]2C[C@@H](O)CN2C(=O)[C@@H](NC(=O)CCCCCNC(=O)c2cc(Oc3ccc(NC(=O)Nc4cccc(C(F)(F)F)c4)cc3)ccn2)C(C)(C)C)cc1 ... 100.1
Cc1ncsc1-c1ccc([C@H](C)NC(=O)[C@@H]2C[C@@H](O)CN2C(=O)[C@@H](NC(=O)CCCCCCCNC(=O)c2cc(Oc3ccc(NC(=O)Nc4cc(C(C)(C)C)on4)cc3)ccn2)C(C)(C)C)cc1 ... 101.2

###

ASSAY TEXT: Plasma stability
Format: in vitro ADME
PROTOCOL CONDITIONS: pooled human plasma, 37 °C, 10 μM, 10 min, read-out: 10 min—Compound Remaining %
READOUT KIND: remaining at 10 min, 10 µM (%)

CNC(=O)c1cc(Oc2ccc(NC(=O)Nc3cc(C(C)(C)C)on3)cc2)ccn1 [MA68, reference compound] ... 92.9
Cc1ncsc1-c1ccc([C@H](C)NC(=O)[C@@H]2C[C@@H](O)CN2C(=O)[C@@H](NC(=O)[C@H]2CC[C@H](C(=O)N3CCN(CCNC(=O)c4cc(Oc5ccc(NC(=O)Nc6cc(C(C)(C)C)on6)cc5)ccn4)CC3)CC2)C(C)(C)C)cc1 ... 95.9
Cc1ncsc1-c1ccc([C@H](C)NC(=O)[C@@H]2C[C@@H](O)CN2C(=O)[C@@H](NC(=O)CCOCCOCCOCCNC(=O)c2cc(Oc3ccc(NC(=O)Nc4cc(C(C)(C)C)on4)cc3)ccn2)C(C)(C)C)cc1 [MA49, reference compound] ... 94.9
Cc1ncsc1-c1ccc([C@H](C)NC(=O)[C@@H]2C[C@@H](O)CN2C(=O)[C@@H](NC(=O)[C@H]2CC[C@H](C(=O)N3CCC(CCNC(=O)c4cc(Oc5ccc(NC(=O)Nc6cc(C(C)(C)C)on6)cc5)ccn4)CC3)CC2)C(C)(C)C)cc1 ... 94.1

###

ASSAY TEXT: in vitro
PROTOCOL CONDITIONS: CD-1, mouse, liver microsomes, pH 7.4
READOUT KIND: remaining at 10 min, 25 µM (%)

Cc1ncsc1-c1ccc([C@H](C)NC(=O)[C@@H]2C[C@@H](O)CN2C(=O)[C@@H](NC(=O)[C@H]2CC[C@H](C(=O)N3CCC(CCNC(=O)c4cc(Oc5ccc(NC(=O)Nc6cc(C(C)(C)C)on6)cc5)ccn4)CC3)CC2)C(C)(C)C)cc1 [MA190] ... 92
Cc1ncsc1-c1ccc([C@H](C)NC(=O)[C@@H]2C[C@@H](O)CN2C(=O)[C@@H](NC(=O)[C@H]2CC[C@H](C(=O)N3CCN(CCNC(=O)c4cc(Oc5ccc(NC(=O)Nc6cc(C(C)(C)C)on6)cc5)ccn4)CC3)CC2)C(C)(C)C)cc1 [MA191] ... 99

(A) Cc1ncsc1-c1ccc([C@H](C)NC(=O)[C@@H]2C[C@@H](O)CN2C(=O)[C@@H](NC(=O)CCOCCOCCOCCNC(=O)c2cc(Oc3ccc(NC(=O)Nc4cc(C(C)(C)C)on4)cc3)ccn2)C(C)(C)C)cc1 [MA49, reference compound]
(B) O=C(O)Cc1ccccc1Nc1c(Cl)cccc1Cl [Diclofenac, Diclofenac sodium, reference compound]
Compare A and B and name the one whose reported remaining at 10 min, 25 µM is smaller. Write the label of whichever entry you select.
A
(A: 66%, B: 94.7%)

###

MEASUREMENT TARGET: FLT3-ITD (Homo sapiens, UniProt P36888, INS600HVDFREYEYD)
Sequence (P36888 with tags, fused parts or gaps INS600HVDFREYEYD): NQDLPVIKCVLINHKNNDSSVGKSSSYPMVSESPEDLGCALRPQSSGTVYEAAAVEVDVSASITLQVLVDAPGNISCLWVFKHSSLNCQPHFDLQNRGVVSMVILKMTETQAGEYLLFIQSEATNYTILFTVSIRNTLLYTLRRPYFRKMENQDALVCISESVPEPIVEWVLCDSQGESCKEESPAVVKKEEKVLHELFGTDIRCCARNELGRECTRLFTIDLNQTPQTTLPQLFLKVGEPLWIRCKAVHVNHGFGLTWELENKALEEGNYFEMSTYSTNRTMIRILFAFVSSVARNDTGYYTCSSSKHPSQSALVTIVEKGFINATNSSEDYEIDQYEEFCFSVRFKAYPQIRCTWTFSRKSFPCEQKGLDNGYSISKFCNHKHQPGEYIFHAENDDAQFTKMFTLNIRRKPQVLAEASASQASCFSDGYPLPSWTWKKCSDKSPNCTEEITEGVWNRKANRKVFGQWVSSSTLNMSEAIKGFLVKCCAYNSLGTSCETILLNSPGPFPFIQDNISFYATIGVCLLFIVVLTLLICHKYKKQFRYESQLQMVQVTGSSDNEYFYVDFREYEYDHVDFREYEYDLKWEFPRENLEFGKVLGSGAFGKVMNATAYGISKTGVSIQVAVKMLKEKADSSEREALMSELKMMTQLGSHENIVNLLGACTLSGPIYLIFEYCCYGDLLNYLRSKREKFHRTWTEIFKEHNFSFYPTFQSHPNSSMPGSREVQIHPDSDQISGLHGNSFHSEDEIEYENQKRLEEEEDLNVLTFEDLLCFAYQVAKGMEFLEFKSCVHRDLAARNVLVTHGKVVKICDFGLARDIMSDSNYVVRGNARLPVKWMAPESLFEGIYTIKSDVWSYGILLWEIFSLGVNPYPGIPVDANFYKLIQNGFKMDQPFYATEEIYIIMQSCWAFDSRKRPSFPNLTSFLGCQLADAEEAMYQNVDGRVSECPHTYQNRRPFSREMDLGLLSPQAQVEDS
ASSAY TEXT: FLT3-ITD degradation, immunoblot in MV4-11 cells
PROTOCOL CONDITIONS: MV4-11, 24 h, read-out: % FLT3-ITD Degradation at 50 nM
READOUT KIND: inhibition at 0.05 µM (%)

Solved entries:
Cc1ncsc1-c1ccc([C@H](C)NC(=O)[C@@H]2C[C@@H](O)CN2C(=O)[C@@H](NC(=O)CCCCCCCNC(=O)c2cc(Oc3ccc(NC(=O)Nc4cccc(C(F)(F)F)c4)cc3)ccn2)C(C)(C)C)cc1 ... 30
Cc1ncsc1-c1ccc([C@H](C)NC(=O)[C@@H]2C[C@@H](O)CN2C(=O)[C@@H](NC(=O)CCOCCOCCOCCNC(=O)c2cc(Oc3ccc(NC(=O)Nc4cc(C(C)(C)C)on4)cc3)ccn2)C(C)(C)C)cc1 [MA49, reference compound] ... 80
Cc1ncsc1-c1ccc([C@H](C)NC(=O)[C@@H]2C[C@@H](O)CN2C(=O)[C@@H](NC(=O)CCOCCOCCNC(=O)c2cc(Oc3ccc(NC(=O)Nc4cc(C(C)(C)C)on4)cc3)ccn2)C(C)(C)C)cc1 ... 90
Cc1ncsc1-c1ccc([C@H](C)NC(=O)[C@@H]2C[C@@H](O)CN2C(=O)[C@@H](NC(=O)CCCCCCCNC(=O)c2cc(Oc3ccc(NC(=O)Nc4cc(C(C)(C)C)on4)cc3)ccn2)C(C)(C)C)cc1 ... 80
Cc1ncsc1-c1ccc([C@H](C)NC(=O)[C@@H]2C[C@@H](O)CN2C(=O)[C@@H](NC(=O)CCCCCCNC(=O)c2cc(Oc3ccc(NC(=O)Nc4cc(C(C)(C)C)on4)cc3)ccn2)C(C)(C)C)cc1 ... 80
Cc1ncsc1-c1ccc([C@H](C)NC(=O)[C@@H]2C[C@@H](O)CN2C(=O)[C@@H](NC(=O)CCCCCNC(=O)c2cc(Oc3ccc(NC(=O)Nc4cc(C(C)(C)C)on4)cc3)ccn2)C(C)(C)C)cc1 ... 80
Cc1ncsc1-c1ccc([C@H](C)NC(=O)[C@@H]2C[C@@H](O)CN2C(=O)[C@@H](NC(=O)[C@H]2CC[C@H](C(=O)N3CCN(CCNC(=O)c4cc(Oc5ccc(NC(=O)Nc6cc(C(C)(C)C)on6)cc5)ccn4)CC3)CC2)C(C)(C)C)cc1 ... 95

(I) Cc1ncsc1-c1ccc([C@H](C)NC(=O)[C@@H]2C[C@@H](O)CN2C(=O)[C@@H](NC(=O)CCCCCNC(=O)c2cc(Oc3ccc(NC(=O)Nc4cccc(C(F)(F)F)c4)cc3)ccn2)C(C)(C)C)cc1
(II) Cc1ncsc1-c1ccc([C@H](C)NC(=O)[C@@H]2C[C@@H](O)CN2C(=O)[C@@H](NC(=O)[C@H]2CC[C@H](C(=O)N3CCC(CCNC(=O)c4cc(Oc5ccc(NC(=O)Nc6cc(C(C)(C)C)on6)cc5)ccn4)CC3)CC2)C(C)(C)C)cc1
Recorded inhibition at 0.05 µM values differ for I and II ; which one is higher? Give the chosen item's label as your response.
II
